Taken from paper PMC12064818.

Catalogue of compounds with associated Enz
# SYSTEM_UNDER_TEST: FLuc-C-NLuc (firefly luciferase) (Photinus pyralis, UniProt P08659, form not given/L550V)
# Sequence (P08659 2-550 L550V, form open): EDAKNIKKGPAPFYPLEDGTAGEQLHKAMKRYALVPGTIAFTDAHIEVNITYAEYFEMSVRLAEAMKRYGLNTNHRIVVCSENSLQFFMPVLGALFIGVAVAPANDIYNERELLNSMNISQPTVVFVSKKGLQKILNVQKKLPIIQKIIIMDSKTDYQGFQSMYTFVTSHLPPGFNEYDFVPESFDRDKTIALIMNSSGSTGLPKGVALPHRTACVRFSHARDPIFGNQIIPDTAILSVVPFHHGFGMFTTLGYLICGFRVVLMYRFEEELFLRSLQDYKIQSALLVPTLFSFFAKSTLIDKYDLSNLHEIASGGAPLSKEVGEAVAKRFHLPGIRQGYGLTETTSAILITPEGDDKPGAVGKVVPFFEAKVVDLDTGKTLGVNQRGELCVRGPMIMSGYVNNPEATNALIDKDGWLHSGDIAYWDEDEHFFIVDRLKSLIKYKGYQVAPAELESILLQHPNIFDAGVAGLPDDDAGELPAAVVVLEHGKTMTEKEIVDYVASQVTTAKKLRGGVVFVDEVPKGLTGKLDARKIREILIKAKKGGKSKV
# METHOD_DESCRIPTION: Firefly luciferase (FLuc) enzymatic luminescence assay, FLuc-C-NLuc
# Format: biochemical
# Parameters: key: % normalized; no enzyme control = 100% inhibition, DMSO = 0
# RUN_CONDITIONS: Log[Compound], M -4.48
Please state the value as a number alone, without comment.

Memo: CC(NC(=O)C1CCN(C(=O)c2ncn3c2COC(c2ccc(F)cc2)C3)CC1)c1ccc(F)cc1 (centres unmarked) [NCGC00449825] , reported Enz: -1.94

Memo: COc1ccc(NC(=O)C2CCN(C(=O)c3ncn4c3COC(c3ccccc3)C4)CC2)cc1Cl (centres unmarked) [NCGC00449919] , reported Enz: -93.84

Memo: CC(CNC(=O)C1CCN(C(=O)c2ncn3c2COC(c2ccccc2)C3)CC1)c1ccccc1 (centres unmarked) [compound 00449795] , reported Enz: -89.10

Memo: O=C(Nc1cccc(F)c1)C1CCN(C(=O)c2ncn3c2COC(c2ccccc2)C3)CC1 (centres unmarked) [NCGC00449914] , reported Enz: -94.95

Memo: CC1CCC(NC(=O)C2CCN(C(=O)c3ncn4c3COC(c3ccc(Cl)cc3)C4)CC2)CC1 (centres unmarked) [NCGC00449845] , reported Enz: -0.56
